Numbers sourced from patent EP4647433A1.

# system under test: SHP2 (Homo sapiens, UniProt Q06124)
# Construct: SHP2 (full length, diluted to 100 pM final concentration in reaction buffer, BPS bioscience, US); purchased BPS bioscience, US
# Sequence (Q06124 whole entry): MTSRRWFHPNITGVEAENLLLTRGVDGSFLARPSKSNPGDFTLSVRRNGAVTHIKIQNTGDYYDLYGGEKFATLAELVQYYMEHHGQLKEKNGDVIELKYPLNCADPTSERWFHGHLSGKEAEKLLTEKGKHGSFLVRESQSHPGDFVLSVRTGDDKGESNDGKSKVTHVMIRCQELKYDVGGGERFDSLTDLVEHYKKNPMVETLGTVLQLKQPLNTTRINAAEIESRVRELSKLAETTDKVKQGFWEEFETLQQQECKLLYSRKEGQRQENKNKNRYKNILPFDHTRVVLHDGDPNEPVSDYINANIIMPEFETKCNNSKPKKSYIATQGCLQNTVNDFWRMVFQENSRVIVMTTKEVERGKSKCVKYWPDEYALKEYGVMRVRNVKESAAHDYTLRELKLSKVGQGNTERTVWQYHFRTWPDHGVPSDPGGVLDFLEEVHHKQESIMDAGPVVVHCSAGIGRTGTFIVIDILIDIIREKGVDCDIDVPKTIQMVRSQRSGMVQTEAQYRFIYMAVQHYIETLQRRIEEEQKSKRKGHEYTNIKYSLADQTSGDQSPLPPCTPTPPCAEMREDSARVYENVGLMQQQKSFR
# test method notes: Phosphatase assay (PTPase assay, DiFMUP substrate)
# Type: biochemical
# protocol conditions: full length SHP2 100 pM activated with SHP2 activating peptide, DiFMUP 80 µM, 2 hours; read-out: PTPase assay (IC50)
quantity name: IC50

Example entries and their recorded answers appear below.
INSERT INTO results (compound, reported_measurement) VALUES
  ('COC(C)(C)Cn1cnc2ccc(Sc3cnc(N4CCC5(CC4)Cc4ccccc4[C@H]5N)nn3)c(Cl)c2c1=O', '< 3 nM'),
  ('C[C@@H]1OCC2(CCN(c3cnc(Sc4ccc5ncn(CC(C)(F)F)c(=O)c5c4Cl)cn3)CC2)[C@@H]1N', '< 3 nM'),
  ('COC(C)Cn1ccc2ccc(Sc3ncc(N4CCC5(CC4)Cc4ccccc4[C@H]5N)nc3N)c(Cl)c2c1=O (stereo partly shown)', '< 3 nM');

Prompt line: # input compound: COC(C)(C)Cn1cnc2ccc(Sc3cnc(N4CCC5(CC4)Cc4ccccc4[C@H]5N)cn3)cc2c1=O ; wanted: its IC50
Response line: 3 to 100 nM

Prompt line: # input compound: Cn1cnc2ccc(Sc3cnc(N4CCC5(CC4)Cc4ncsc4[C@H]5N)cn3)cc2c1=O ; wanted: its IC50
Response line: < 3 nM

Prompt line: # input compound: CCn1cnc2ccc(Sc3cnc(N4CCC5(CC4)Cc4ncsc4[C@H]5N)cn3)c(Cl)c2c1=O ; wanted: its IC50
Response line: < 3 nM

Prompt line: # input compound: C[C@@H]1OCC2(CCN(c3cnc(Sc4ccc5ncn(CC6CCN(C)CC6)c(=O)c5c4Cl)cn3)CC2)[C@@H]1N ; wanted: its IC50
Response line: 3 to 100 nM

Prompt line: # input compound: C[C@@H]1OCC2(CCN(c3cnc(Sc4ccc5ccn(C)c(=O)c5c4Cl)cn3)CC2)[C@@H]1N ; wanted: its IC50
Response line: < 3 nM

Prompt line: # input compound: N[C@@H]1c2scnc2CC12CCN(c1cnc(Sc3ccc4nc[nH]c(=O)c4c3Cl)cn1)CC2 ; wanted: its IC50
Response line: < 3 nM

Prompt line: # input compound: COC(C)Cn1ccc2ccc(Sc3cnc(N4CCC5(CC4)Cc4ccccc4[C@H]5N)cn3)c(Cl)c2c1=O (stereo partly shown) ; wanted: its IC50
Response line: < 3 nM

Prompt line: # input compound: Cn1ccc2ccc(Sc3cnc(N4CCC5(CC4)Cc4ccccc4[C@H]5N)cn3)cc2c1=O ; wanted: its IC50
Response line: < 3 nM

Prompt line: # input compound: COC(C)Cn1ccc2ccc(Sc3cnc(N4CCC5(CC4)CO[C@@H](C)[C@H]5N)cn3)c(Cl)c2c1=O (stereo partly shown) ; wanted: its IC50
Response line: < 3 nM

Prompt line: # input compound: CC(C)n1ccc2ccc(Sc3ncc(N4CCC5(CC4)Cc4ccccc4[C@H]5N)nc3N)c(Cl)c2c1=O ; wanted: its IC50
Response line: < 3 nM
